assay: Pharmacokinetic test in mice (IV and PO); format: in vivo, BALB/c mice; details: BALB/c, mouse, plasma; mice, IV 1 mg/kg (C0)
Below, each entry is listed with its recorded Cmax.
Numeric answer only, unit nM assumed.

Please report the measured Cmax for CN(C)C(=O)N[C@@H]1CCCC[C@H]1N1Cc2ccc(-c3nnc(C(F)F)o3)cc2S1(=O)=O
2110

---

assay: Brain-to-blood drug concentration ratio of mice; type: in vivo; conditions: mouse, brain/plasma, 5 mg/kg PO, 2 h
Result Type: Kp at 2 h
Write no unit; give the number alone.

Some entries whose results are on file:
1. O=C(N[C@@H]1COCC[C@H]1N1Cc2ccc(-c3nnc(C(F)F)o3)cc2S1(=O)=O)C(F)F [Compound 13]
0.09
2. CC(F)(F)C(=O)N[C@@H]1CCCC(F)(F)[C@H]1N1Cc2ccc(-c3nnc(C(F)F)o3)cc2S1(=O)=O [Compound 10]
0.17
3. O=S(=O)(N[C@@H]1CCCC[C@H]1N1Cc2ccc(-c3nnc(C(F)F)o3)cc2S1(=O)=O)C1CC1 [Compound 4]
0.08
4. O=C(N[C@@H]1CCCC[C@H]1N1Cc2ccc(-c3nnc(C(F)F)o3)cc2S1(=O)=O)N1CCOCC1 [Compound 113]
0.02
5. Cn1cc([C@@H]([C@H](O)c2ccccc2)N2Cc3ccc(-c4nnc(C(F)F)o4)cc3S2(=O)=O)cn1 [Compound 80]
0.08
6. CN(C)C(=O)N[C@@H]1CCCC[C@H]1N1Cc2ccc(-c3nnc(C(F)F)o3)cc2S1(=O)=O [Compound 93]
0.11
7. O=C(N[C@@H]1CCOC[C@H]1N1Cc2ccc(-c3nnc(C(F)F)o3)cc2S1(=O)=O)C(F)F [Compound 14]
0.03

Attention now turns to another entry.
Please report the measured Kp at 2 h for O=S1(=O)c2cc(-c3nnc(C(F)F)o3)ccc2CN1[C@H](c1ccccn1)[C@H](O)c1ccc(F)cn1 [Compound 87]
0.28

---

experiment: Brain-to-blood drug concentration ratio of mice; type: in vivo; details: mouse, brain/plasma, 10 mg/kg PO, 4 h
Result Type: Kp at 4 h
Write no unit; give the number alone.

1) O=C(N[C@@H]1CCCC[C@H]1N1Cc2ccc(-c3nnc(C(F)F)o3)cc2S1(=O)=O)C(F)F [Compound 2]
0.15

Attention now turns to another entry.
Please report the measured Kp at 4 h for CC(F)(F)C(=O)N[C@@H]1CCCC[C@H]1N1Cc2ccc(-c3nnc(C(F)F)o3)cc2S1(=O)=O [Compound 1]
0.15

---

Below are pIC50 values measured for HDAC6 (Homo sapiens (Human)).
Bear in mind: pIC50 is minus log10 of a mol/L concentration; give just that figure.

1. O=S1(=O)c2cc(-c3nnc(C(F)F)o3)ccc2CN1[C@@H](c1ccccn1)[C@H](O)c1ccc(F)cn1 (single isomer, unassigned) [Compound 84j-B]
6.95

Recall the reported pIC50 of O=S1(=O)c2cc(-c3nnc(C(F)F)o3)ccc2CN1[C@@H](c1ccc(F)cn1)[C@H](O)c1ccc(F)cn1 (single isomer, unassigned) [Compound 88j-A-B] when tested on HDAC6 (Homo sapiens (Human)).
Sequence (Q9UBN7 whole entry): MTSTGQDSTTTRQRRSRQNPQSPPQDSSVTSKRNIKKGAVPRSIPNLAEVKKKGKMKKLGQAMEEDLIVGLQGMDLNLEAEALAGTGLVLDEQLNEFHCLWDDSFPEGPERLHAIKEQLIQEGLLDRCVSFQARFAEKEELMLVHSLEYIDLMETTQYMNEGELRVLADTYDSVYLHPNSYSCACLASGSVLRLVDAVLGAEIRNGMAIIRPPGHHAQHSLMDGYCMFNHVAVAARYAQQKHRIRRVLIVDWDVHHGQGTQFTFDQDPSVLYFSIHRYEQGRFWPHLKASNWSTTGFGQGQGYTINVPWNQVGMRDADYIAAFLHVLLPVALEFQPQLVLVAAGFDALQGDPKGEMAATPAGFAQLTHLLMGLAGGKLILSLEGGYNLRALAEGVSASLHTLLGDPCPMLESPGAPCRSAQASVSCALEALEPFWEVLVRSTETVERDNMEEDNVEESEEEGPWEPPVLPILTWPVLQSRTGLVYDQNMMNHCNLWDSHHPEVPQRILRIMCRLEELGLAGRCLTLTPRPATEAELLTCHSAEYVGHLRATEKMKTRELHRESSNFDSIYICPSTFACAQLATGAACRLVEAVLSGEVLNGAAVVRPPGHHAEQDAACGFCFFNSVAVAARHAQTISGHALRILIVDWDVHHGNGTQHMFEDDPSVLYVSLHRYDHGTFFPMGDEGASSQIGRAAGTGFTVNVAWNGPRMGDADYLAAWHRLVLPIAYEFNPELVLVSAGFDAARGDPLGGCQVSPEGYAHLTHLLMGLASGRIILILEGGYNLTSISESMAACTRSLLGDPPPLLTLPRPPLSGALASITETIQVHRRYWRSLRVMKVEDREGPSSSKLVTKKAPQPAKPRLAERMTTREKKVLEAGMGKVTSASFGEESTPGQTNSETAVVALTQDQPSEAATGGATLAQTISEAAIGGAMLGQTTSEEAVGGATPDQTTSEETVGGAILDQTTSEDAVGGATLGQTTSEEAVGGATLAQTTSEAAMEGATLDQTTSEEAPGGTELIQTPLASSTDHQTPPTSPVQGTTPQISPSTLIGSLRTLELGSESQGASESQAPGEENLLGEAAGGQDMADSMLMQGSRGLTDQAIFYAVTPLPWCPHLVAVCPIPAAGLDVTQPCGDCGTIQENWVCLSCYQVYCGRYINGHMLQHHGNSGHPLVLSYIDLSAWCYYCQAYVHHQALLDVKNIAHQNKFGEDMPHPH
6.80

Recall the reported pIC50 of O=S1(=O)c2cc(-c3nnc(C(F)F)o3)ccc2CN1[C@@H](c1cnccn1)[C@H](O)c1cnccn1 (single isomer, unassigned) [Compound 99j-A-B] when tested on HDAC6 (Homo sapiens (Human)).
7.13

Recall the reported pIC50 of O=S1(=O)c2cc(-c3nnc(C(F)F)o3)ccc2CN1[C@@H](c1ccccn1)[C@H](O)c1ccc(F)cn1 (single isomer, unassigned) [Compound 84j-A-A] when tested on HDAC6 (Homo sapiens (Human)).
6.68

Recall the reported pIC50 of CC(F)(F)C(=O)N[C@@H]1CCCC[C@H]1N1Cc2c(F)cc(-c3nnc(C(F)F)o3)cc2S1(=O)=O [Compound 39] when tested on HDAC6 (Homo sapiens (Human)).
6.58

Recall the reported pIC50 of O=S1(=O)c2cc(-c3nnc(C(F)F)o3)ccc2CN1[C@@H](c1ncccn1)[C@@H](O)c1ncccn1 [Compound 103j-C] when tested on HDAC6 (Homo sapiens (Human)).
6.65

These data points were gathered from patent US20250257060A1.
